Target: T1, human GITR-His (human, UniProt Q9Y5U5 26-161)
T1 construct: Bought from Acro biosystems; also called GITR-His (Acro biosystems); antigen GITR-His
T1 sequence: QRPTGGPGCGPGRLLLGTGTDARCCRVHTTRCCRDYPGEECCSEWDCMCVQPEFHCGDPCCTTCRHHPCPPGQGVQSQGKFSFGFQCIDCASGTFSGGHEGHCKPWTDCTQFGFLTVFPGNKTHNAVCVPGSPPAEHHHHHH
Test: ForteBio BLI, antibody on AHQ tip, human GITR-His 100 nM in solution, 1:1 model
Just a reminder that ties go to criterion not met: only kon strictly below 300000 M⁻¹ s⁻¹ counts as criterion met.

binder	assigned_class
hcIgG-20 (antibody, V domains shown, also called heavy-chain antibody of Nb-20) VH: QVQLQESGGGSVQAGGSLRLSCASSGYSRTSRWMAWFRQAPGKEREGVAAIYTGGSSTLYANSMADRVTISQDNAKNTVYLRMNNLKPEDTAMYYCAADKLAGDFWLVDRWRAWGQGTQVTVSS	criterion not met
hcIgG-10 (antibody, V domains shown, also called heavy-chain antibody of Nb-10) VH: QVQLQESGGGLVQPGGSLRLSCAASGFAFGSSHMSWVRRAPGKGLEWVSTIHSGGGFGDYANSVQGRFTISRDVAKNTLYLQMNSLKPEDTAIYYCALATDWRKPPGQGTQVTVSS	criterion met
hcIgG-04 (antibody, V domains shown, also called heavy-chain antibody of Nb-04) VH: QVQLQESGGGSVQAGGSLRLSCTASGFTVDDSGMGWYRQAPGNECELVSTISSDGSTYYADSVKGRFTISQDNAKNTVYLQMNSLKPEDTAVYYCAAPRVGVGWVRPCDYEYNYWGQGTQVTVSS	criterion met
hcIgG-16 (antibody, V domains shown, also called heavy-chain antibody of Nb-16) VH: QVQLQESGGGSVQAGGSLRLSCAASGYTYNKYSWGWFRQAPGKEREGVAGIDSDGSTSYADSVKGRFTISKDNTKNTLYLQMNSLKPEDTAMYYCAASDWVSAIQALGVLAVRPYEYWGQGTQVTVSS	criterion met
hcIgG-07 (antibody, V domains shown, also called heavy-chain antibody of Nb-07) VH: QVQLQESGGGLVQAGGSLKLSCTVSGFAFGSSHMSWVRRAPGKGLEWVSTIHSGGGFGDYANSVQGRFTISRDVAKNTLYLQMNSLKPEDTAIYYCALATDWRKPPGQGTQVTVSS	criterion met
hcIgG-09 (antibody, V domains shown, also called heavy-chain antibody of Nb-09) VH: QVQLQESGGGLVQPGGSLRLSCGASGFTFSSTAMWWFRQAPGKGLEWVSSITSDVSGTYYADSVQGRFTISRDNGKNTVYLQMNSLRSEDTALYYCATSCGFSGGTWSCKYRGQGTQVTVSS	criterion met
hcIgG-03 (antibody, V domains shown, also called heavy-chain antibody of Nb-03) VH: QVQLQESGGGSVQAGGSLRLSCAASGYTYSGYCMGWFRQAPGKEHEGVASIVSGLGRPYYADSVKGRFTISQDNAKNTVYLQMNSLKPEDTAMYYCAAEWATKLCSEIPATEWDYWGQGTQVTVSS	criterion not met
hcIgG-02 (antibody, V domains shown, also called heavy-chain antibody of Nb-02) VH: QVQLQESGGGSVQAGGSLRLSCAASRDTYTRYFMGWFRQTPGKEGEGVAVLLPGGDYTFYADSVKGRFTITQDSAKNTVYLQMNSLKPEDTAMYYCAADVTVGSRWSQASNYNYWGQGTQVTVSS	criterion not met
